Give Ki for every item shown.
ASSAYED TARGET: Melanocortin receptor 3 (Homo sapiens, UniProt P41968)
Sequence (P41968 whole entry): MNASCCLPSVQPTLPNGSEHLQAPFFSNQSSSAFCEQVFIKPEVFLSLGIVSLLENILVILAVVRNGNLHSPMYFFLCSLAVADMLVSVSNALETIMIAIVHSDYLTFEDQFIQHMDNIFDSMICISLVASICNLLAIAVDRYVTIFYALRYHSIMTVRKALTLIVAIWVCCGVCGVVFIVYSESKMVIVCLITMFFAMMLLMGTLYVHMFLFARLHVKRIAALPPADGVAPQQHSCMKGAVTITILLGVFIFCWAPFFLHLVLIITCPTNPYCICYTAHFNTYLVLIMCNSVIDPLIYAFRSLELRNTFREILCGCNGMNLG
Give bare numbers, in nM.

COMPOUND	ASSAYED TARGET	UNIT OF MEASUREMENT	Ki
CC(=O)N[C@H]1CSSC[C@@H](C(=O)N2CCC[C@H]2C(=O)N2CCC[C@H]2C(=O)N[C@@H](CCCCN)C(=O)N[C@@H](CC(=O)O)C(N)=O)NC(=O)CNC(=O)[C@H](Cc2c[nH]c3ccccc23)NC(=O)[C@H](CCCN=C(N)N)NC(=O)[C@@H](Cc2ccc(Cl)c(Cl)c2)NC(=O)[C@H](Cc2c[nH]cn2)NC(=O)[C@H](CCC(=O)O)NC1=O	Melanocortin receptor 3 (Homo sapiens, UniProt P41968)	nM	20
N=C(N)NCCC[C@H]1NC(=O)[C@@H](Cc2ccc3ccccc3c2)NC(=O)CCC(=O)NCCCC[C@H](C(N)=O)NC(=O)[C@@H](Cc2c[nH]c3ccccc23)NC1=O	Melanocortin receptor 3 (Homo sapiens, UniProt P41968)	nM	5900
N=C(N)NCCC[C@@H]1NC(=O)[C@@H](Cc2ccc3ccccc3c2)NC(=O)[C@H](Cc2cnc[nH]2)NC(=O)[C@@H](N)CC(=O)NCCCC[C@@H](C(N)=O)NC(=O)[C@H](Cc2c[nH]c3ccccc23)NC1=O	Melanocortin receptor 3 (Homo sapiens, UniProt P41968)	nM	14

Would you kindly look at the next entry?
Req: So what does the record say about Ki for N=C(N)NCCC[C@@H]1NC(=O)[C@H](Cc2ccc3ccccc3c2)NC(=O)CCC(=O)NC2CCC(C(N)=O)N2C(=O)[C@@H](Cc2c[nH]c3ccccc23)NC1=O (some centres undefined) ?
Resp: 3000

###

ASSAYED TARGET: Melanocortin receptor 5 (Homo sapiens, UniProt P33032)
Sequence (P33032 whole entry): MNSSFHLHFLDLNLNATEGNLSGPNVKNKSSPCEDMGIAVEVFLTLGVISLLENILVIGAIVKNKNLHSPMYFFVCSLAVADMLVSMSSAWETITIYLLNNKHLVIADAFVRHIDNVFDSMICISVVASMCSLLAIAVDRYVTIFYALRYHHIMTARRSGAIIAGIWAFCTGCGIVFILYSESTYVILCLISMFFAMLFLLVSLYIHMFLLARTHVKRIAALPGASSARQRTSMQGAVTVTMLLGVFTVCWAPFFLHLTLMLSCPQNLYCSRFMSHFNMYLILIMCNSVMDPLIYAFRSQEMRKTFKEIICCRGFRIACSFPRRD
ASSAY SUMMARY: Signal transduction efficacy in cAMP assay in the CHO cells expressing human melanocortin receptor 5
Type: functional, cell-based
MEASURED PARAMETER: Activation at 5 µM at 5nM (%)
Give bare numbers, in %.

// worked examples, Activation at 5 µM at 5nM included
COMPOUND	UNIT OF MEASUREMENT	TEST VALUE
N=C(N)NCCC[C@@H]1NC(=O)[C@@H](Cc2ccc3ccccc3c2)NC(=O)CCC(=O)NCCCC[C@H](C(N)=O)NC(=O)[C@H](Cc2c[nH]c3ccccc23)NC1=O	%	7
N=C(N)NCCC[C@@H]1NC(=O)[C@H](Cc2ccc3ccccc3c2)NC(=O)CCC(=O)NCC[C@H](C(N)=O)NC(=O)[C@@H](Cc2c[nH]c3ccccc23)NC1=O	%	13
N=C(N)NCCC[C@@H]1NC(=O)[C@@H](Cc2ccc3ccccc3c2)NC(=O)CCC(=O)NCCCC[C@H](C(N)=O)NC(=O)[C@@H](Cc2c[nH]c3ccccc23)NC1=O	%	0
N=C(N)NCCC[C@@H]1NC(=O)[C@H](Cc2ccc3ccccc3c2)NC(=O)CCC(=O)NC2CCC(C(N)=O)N2C(=O)[C@@H](Cc2c[nH]c3ccccc23)NC1=O (stereo not given in full)	%	3

Now for another entry.
Req: Item: `N=C(N)NCCC[C@H]1NC(=O)[C@@H](Cc2ccc3ccccc3c2)NC(=O)CCC(=O)NCCCC[C@H](C(N)=O)NC(=O)[C@@H](Cc2c[nH]c3ccccc23)NC1=O` Test system: Melanocortin receptor 5 (Homo sapiens, UniProt P33032) Read-out: Activation at 5 µM at 5nM Value: ?
Resp: 5
